Test: qHTS assay to identify small molecule antagonists of the estrogen receptor alpha (ER-alpha) signaling pathway - cell viability counter screen (AID 743074);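 further: HEK293 cells carrying ER-alpha-UAS-bla reporter stimulated with 17beta-estradiol; nearly all actives have a fitted effect of over 45% in size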
Conditions: ERalpha-bla HEK293 viability, CellTiter-Glo luminescence, 18 h; series mostly up to 69.4 µM
Results filed as inconclusive are left out. Activity calls are given as the source filed them. The call rests on the fitted dose curve. Positions of bridges follow the written chain, without caps; N, C: chain ends. Non-standard residues stand in square brackets, D forms with d. Residues, ends and D or L forms follow the SMILES beside them. *: point of attachment. X1 = CC[C@@H](C)[C@@H](N)C1=N[C@H](C(=O)*)CS1; d(aIle) = CC[C@H](C)[C@@H](N)C(=O)O; dOrn = NCCC[C@@H](N)C(=O)O
Write down the outcome that applies. Available outcomes: label 1 = active, label 0 = inactive

Enquiry: Assay result, entry CC(C)(C)c1ccc2c(S(=O)(=O)O)c(C(C)(C)C)ccc2c1 — outcome?
Return: label 0

Enquiry: Returns: the outcome recorded for O=C(O)[C@H]1CN(C/C=C/P(=O)(O)O)CCN1 in this assay.
Return: label 0

Enquiry: Test call for this compound, please: C=C(Nc1ccc(OCC)cc1)Nc1ccc(OCC)cc1
Return: label 0

Enquiry: GET /call?item= O=C1C2CC3CC1CC(O)(C3)C2 returns the recorded outcome of this test.
Return: label 0

Enquiry: Hi team, can someone confirm the assay call for CO/N=C(\C(=O)N[C@@H]1C(=O)N2C(C(=O)[O-])=C(C[n+]3ccc(N)n3CCO)CS[C@H]12)c1csc(N)n1 ?
Return: label 0

Enquiry: Please indicate how the test categorized O=C(O)Cc1nn(Cc2ccc(Br)cc2F)c(=O)c2ccccc12 .
Return: label 0

Enquiry: Called result for O=C1CCCCCCCCCCCCCC1
Return: label 0

Enquiry: What classification did CC12CCC(C[N+](C)(CCC[N+](C)(C)C)C1)C2(C)C (centres undefined) end up with in this test?
Return: label 0

Enquiry: Outcome? CC12CCC(C1)C(C)(C)C2=O (centres undefined)
Return: label 0

Enquiry: Dear colleague, could you share the recorded outcome for COc1ccc([C@@H]2CC(=O)c3c(O)cc(O[C@@H]4O[C@H](CO[C@@H]5O[C@@H](C)[C@H](O)[C@@H](O)[C@H]5O)[C@@H](O)[C@H](O)[C@H]4O)cc3O2)cc1O when you have a moment?
Return: label 0

Enquiry: For O=C(O)COc1ccccc1/C=N/NC(=O)c1ccncc1 , which call appears in the assay record?
Return: label 0

Enquiry: Returns: the outcome recorded for CN(C[C@@H](CC[N+]12CCC(C3CCCCC3)(CC1)CC2)c1ccc(Cl)c(Cl)c1)C(=O)c1cc(C(F)(F)F)cc(C(F)(F)F)c1 in this assay.
Return: label 1

Enquiry: Please share the test call associated with CC[C@@H](C)[C@@H](N)C1=N[C@H](C(=O)N[C@@H](CC(C)C)C(=O)N[C@@H](CCC(=O)O)C(=O)N[C@@H](C(=O)N[C@@H]2CCCCNC(=O)[C@@H](CC(N)=O)NC(=O)[C@@H](CC(=O)O)NC(=O)[C@@H](Cc3cnc[nH]3)NC(=O)[C@@H](Cc3ccccc3)NC(=O)[C@@H]([C@H](C)CC)NC(=O)[C@@H](CCCN)NC2=O)[C@@H](C)CC)CS1 (X1-LE[d(aIle)][dK][dOrn][dI][dF][dH][dD][dN]; lactam 4-C) .
Return: label 0

Enquiry: Any idea what this test logged for CN(Cc1ccccc1)Cc1ccccc1 ?
Return: label 0

Enquiry: Kindly provide the recorded test outcome for the following compound: O=C(O)/C=C/C(O)c1ccc(Cl)cc1 (centres undefined)
Return: label 0

Enquiry: Please share the test call associated with N#Cc1c(N(CC(=O)O)CC(=O)O)sc(C(=O)O)c1CC(=O)O .
Return: label 0

Enquiry: Write down the call the test reported for this compound. Item: CCN(CC)CC#CCOC(=O)C(O)(c1ccccc1)C1CCCCC1 (centres undefined)
Return: label 0

Enquiry: Which outcome was entered for the compound O=C1c2c(O)cccc2[C@H]([C@@H]2O[C@H](CO)[C@@H](O)[C@H](O)[C@H]2O)c2cc(CO)cc(O)c21 in this test?
Return: label 0

Enquiry: Identify the outcome logged in this assay for the compound shown: O=C1CCC(c2ccccc2)(C2CCN(Cc3ccccc3)CC2)C(=O)N1 (centres undefined)
Return: label 0

Enquiry: Hi, sorry to bother you, what did the test record for CC(C)Cc1ccc([C@H](C)C(=O)O)cc1 ?
Return: label 0

Enquiry: Recorded test outcome, item C(=C\c1ccncc1)/c1ccccc1
Return: label 0

Enquiry: Field: outcome | Entry: CC(C)c1ccc2sc3ccccc3c(=O)c2c1
Return: label 0
